pIC50 by entry:
System: MCF7
test-description: Antiproliferative activity against human MCF7 cells after 48 hrs by MTT assay
Format: functional, cell-based
test-conditions: MCF7, 48 h
As a rule, pIC50 stands for the negative log10 of the concentration, concentration in M.

Answered examples (6):
molecule	measured-on	measurement
COc1ccc(-c2nc(C(c3c[nH]c4ccc(F)cc34)c3c[nH]c4ccc(F)cc34)cc3c2[nH]c2ccccc23)cc1	MCF7	4.51
COc1ccc2c(c1)[nH]c1c(C)nccc12	MCF7	4.97
COc1ccc(-c2nc(C(c3c[nH]c4ccccc34)c3c[nH]c4ccc(C#N)cc34)cc3c2[nH]c2ccccc23)cc1 (centres undefined)	MCF7	4.54
Fc1ccc(-c2nc(C(c3c[nH]c4ccc(Br)cc34)c3c[nH]c4ccc(Br)cc34)cc3c2[nH]c2ccccc23)cc1	MCF7	4.74
COc1ccc(-c2nc(C(c3c[nH]c4ccc(Br)cc34)c3c[nH]c4ccc(Br)cc34)cc3c2[nH]c2ccccc23)cc1	MCF7	4.73
COc1ccc2[nH]cc(C(c3cc4c([nH]c5ccccc54)c(-c4ccc(F)cc4)n3)c3c[nH]c4ccc(OC)cc34)c2c1	MCF7	4.46

Okay, now this molecule:
Consider the molecule shown here: Cc1ccc(-c2nc(C(c3c[nH]c4ccc(F)cc34)c3c[nH]c4ccc(F)cc34)cc3c2[nH]c2ccccc23)cc1 What is its recorded pIC50? 4.85

----------
System: DU-145
test-description: Antiproliferative activity against human DU145 cells after 48 hrs by MTT assay
Assay type: functional, cell-based
test-conditions: DU-145, 48 h
pIC50: −log10 of the molar value.
Returns one of y or n; y when pIC50 is >= 5.

// known answers, use as guide
compound	measured-on	class
COc1ccc(-c2nc(C(c3c[nH]c4ccc(Br)cc34)c3c[nH]c4ccc(Br)cc34)cc3c2[nH]c2ccccc23)cc1	DU-145	y
N#Cc1ccc2[nH]cc(C(c3cc4c([nH]c5ccccc54)c(-c4ccc(F)cc4)n3)c3c[nH]c4ccccc34)c2c1 (stereo unspecified)	DU-145	y

Textbook exercise: given the entry Cc1ccc(-c2nc(C(c3c[nH]c4ccc(F)cc34)c3c[nH]c4ccc(F)cc34)cc3c2[nH]c2ccccc23)cc1 , state whether its pIC50 is greater than or equal to 5. y

----------
Tested on: DU-145
test-description: Antiproliferative activity against human DU145 cells after 48 hrs by MTT assay
Type: functional, cell-based
test-conditions: DU-145, 48 h
property-measured: IC50 (µM)
Just the number in µM, nothing appended.

Example entries begin here.
molecule	measured-on	value-unit	IC50
COc1cc(-c2nc(C(c3c[nH]c4ccc(F)cc34)c3c[nH]c4ccc(F)cc34)cc3c2[nH]c2ccccc23)cc(OC)c1OC	DU-145	µM	10.1
COc1ccc(-c2nc(C(c3c[nH]c4ccc([N+](=O)[O-])cc34)c3c[nH]c4ccc([N+](=O)[O-])cc34)cc3c2[nH]c2ccccc23)cc1	DU-145	µM	9.31

Entry under review: COc1cc(-c2nc(C(c3c[nH]c4ccc([N+](=O)[O-])cc34)c3c[nH]c4ccc([N+](=O)[O-])cc34)cc3c2[nH]c2ccccc23)cc(OC)c1OC . Reported IC50? 11.9

----------
System: DU-145
test-description: Antiproliferative activity against human DU145 cells after 48 hrs by MTT assay
Type: functional, cell-based
test-conditions: DU-145, 48 h
Measured pIC50 by item
pIC50 (log units): -log10 of the concentration in mol/L.

Illustrative cases are given below, each with its answer.
molecule	pIC50
COc1ccc(-c2nc(C(c3c[nH]c4ccc(F)cc34)c3c[nH]c4ccc(F)cc34)cc3c2[nH]c2ccccc23)cc1	5.08
COc1ccc2c(c1)[nH]c1c(C)nccc12	4.92
COc1cc(-c2nc(C(c3c[nH]c4ccc(Br)cc34)c3c[nH]c4ccc(Br)cc34)cc3c2[nH]c2ccccc23)cc(OC)c1OC	4.83

Can you share its pIC50? I mean this compound: Fc1ccc(-c2nc(C(c3c[nH]c4ccc(F)cc34)c3c[nH]c4ccc(F)cc34)cc3c2[nH]c2ccccc23)cc1 4.80
